Biological target: PIK3CA (human), P42336 [Antiproliferation of PI3K Mutated BT20 Cells]
Sequence (P42336 whole entry, looked up, change not shown): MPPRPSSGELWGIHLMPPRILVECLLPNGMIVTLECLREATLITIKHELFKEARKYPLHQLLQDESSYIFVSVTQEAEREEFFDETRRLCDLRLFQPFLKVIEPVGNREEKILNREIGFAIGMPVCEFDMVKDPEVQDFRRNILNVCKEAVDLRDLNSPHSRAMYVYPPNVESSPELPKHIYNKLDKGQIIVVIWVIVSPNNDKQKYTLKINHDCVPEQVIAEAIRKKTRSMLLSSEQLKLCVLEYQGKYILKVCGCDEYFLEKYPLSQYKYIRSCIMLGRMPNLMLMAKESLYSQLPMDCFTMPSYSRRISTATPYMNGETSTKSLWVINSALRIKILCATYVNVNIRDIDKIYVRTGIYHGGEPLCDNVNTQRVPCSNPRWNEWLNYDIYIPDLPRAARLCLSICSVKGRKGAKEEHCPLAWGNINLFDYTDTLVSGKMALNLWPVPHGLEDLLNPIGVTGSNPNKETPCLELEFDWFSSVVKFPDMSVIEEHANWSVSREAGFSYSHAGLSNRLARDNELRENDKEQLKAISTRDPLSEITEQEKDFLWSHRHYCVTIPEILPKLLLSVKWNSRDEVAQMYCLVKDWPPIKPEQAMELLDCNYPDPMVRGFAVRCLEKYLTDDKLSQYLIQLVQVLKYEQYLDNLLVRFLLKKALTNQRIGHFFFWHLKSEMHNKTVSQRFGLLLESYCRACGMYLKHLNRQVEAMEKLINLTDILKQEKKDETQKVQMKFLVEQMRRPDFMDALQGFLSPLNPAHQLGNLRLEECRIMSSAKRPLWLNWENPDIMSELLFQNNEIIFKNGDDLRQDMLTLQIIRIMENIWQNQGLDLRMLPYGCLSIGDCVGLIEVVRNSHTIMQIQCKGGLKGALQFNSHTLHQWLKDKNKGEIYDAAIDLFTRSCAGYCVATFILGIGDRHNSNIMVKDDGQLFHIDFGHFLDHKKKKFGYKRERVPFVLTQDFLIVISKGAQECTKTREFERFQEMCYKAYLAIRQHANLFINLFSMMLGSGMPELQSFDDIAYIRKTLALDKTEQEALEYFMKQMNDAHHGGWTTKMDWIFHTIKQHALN
Assay: Cell-Based Assay
Property: IC50 (nM)

CCOc1ccc(-c2cc3c(C)nc(N)nc3n([C@H]3CC[C@H](O)CC3)c2=O)cn1 = 21.2

A. CCNc1nc(C)c2cc(-c3cccc(O)c3)c(=O)n(C3CCCC3)c2n1
B. Cc1nc(N)nc2c1cc(-c1cnc3ccccc3c1)c(=O)n2[C@H]1CC[C@H](O)CC1
C. CNc1nc(C)c2cc(-c3cn[nH]c3)c(=O)n(CC3CCOC3)c2n1 (stereo not given)
D. CCNc1nc(C)c2cc(-c3cnc(OC)c(F)c3)c(=O)n([C@H]3CC[C@H](O)CC3)c2n1
Put these in order: smallest IC50 first, largest last. List the labels according to the requested ordering.
A, D, C, B
(A: 3.05 nM, D: 5.1 nM, C: 22.1 nM, B: 42 nM)

----------
For reference, pIC50 measured on PIK3CA (human) (UniProt P42336):
pIC50: −log10 of the molar value.
Property: pIC50

Consider the worked cases shown below.
COc1ccc(-c2cc3c(C)nc(N)nc3n(C3CCN(C(C)=O)C3)c2=O)cn1 (centres undefined) = 8.15
Cc1nc(N)nc2c1cc(-c1cnn(CC(F)F)c1)c(=O)n2C1CCCC1 = 7.92
CO[C@H]1CC[C@H](n2c(=O)c(-c3ccc(N(C)C)nc3)cc3c(C)nc(N)nc32)CC1 = 8.21
Cc1nc(N)nc2c1cc(-c1ccc(OC(C)C)nc1)c(=O)n2[C@H]1CC[C@H](O)CC1 = 8.03
Cc1nc(N)nc2c1cc(-c1cc[nH]n1)c(=O)n2[C@H]1CC[C@H](O)CC1 = 8.00

P. CNc1nc(C)c2cc(-c3cn[nH]c3)c(=O)n(C3CCCC3)c2n1
Q. COc1ccc(-c2cc3c(C)nc(N)nc3n(C3CCCC3)c2=O)cc1F
Please let me know which one, P or Q , has a lower measured pIC50 value. Lab log: write the label of the selected item as the result.
Q

----------
Target: PIK3CA (human), P42336 [Antiproliferation of PI3K Mutated BT20 Cells]
Assay: Cell-Based Assay
pIC50: −log10 of the molar value.
Property: pIC50

COc1ncc(-c2cc3c(C)nc(N)nc3n([C@H]3C[C@H](OCCO)C3)c2=O)cn1 = 7.03
C=CCn1c(=O)c(-c2ccc(OC)nc2)cc2c(C)nc(NC)nc21 = 6.97
COc1ccc(-c2cc3c(C)nc(N)nc3n([C@H]3CC[C@H](OC[C@@H](O)CO)CC3)c2=O)cn1 = 7.88
COc1ccc(-c2cc3c(C)nc(N)nc3n(CC3CCCO3)c2=O)cn1 (centres undefined) = 6.92
Cc1nc(N)nc2c1cc(-c1cn[nH]c1)c(=O)n2C1CCC(C)(O)CC1 (centres undefined) = 7.82
Cc1nc(N)nc2c1cc(-c1cnc3[nH]ccc3c1)c(=O)n2C1CC1 = 6.86

A. COc1ccc(-c2cc3c(C)nc(N)nc3n([C@@H]3CC[C@@H](O)C3)c2=O)cn1
B. Cc1nc(N)nc2c1cc(-c1cnc3[nH]ccc3c1)c(=O)n2C(C)C
C. COc1ncc(-c2cc3c(C)nc(N)nc3n([C@H]3CC[C@@H](OCCO)CC3)c2=O)cn1
Order the items by recorded pIC50; the first position goes to the largest value. List the labels according to the requested ordering.
B, C, A
